# Test system: MS2 coat protein
# PROTOCOL DETAILS: apparent KD of MS2 coat protein; designed switch direction (-1 OFF switch, 1 ON switch): -1; higher = weaker reporter binding
# TEST PARAMETERS: input ligand: microRNA oligo, concentration not stated
Measured apparent KD of MS2 coat protein values are reported for all entries that follow.
Kindly answer with a numeric value in nM, unit omitted.

Sample answers from the record:
[
  {
    "SEQUENCE RECORD": "CCUGCGGACAAAGGAUAUUGCGGUGGCCGGCUCAGUAAAUCUAGCCAACAUGAGGAUCACCCAUGUAAGAAGGUUGCCGUUGGU [Qudice] (Eterna round: R96, puzzle: Exclusion NG 2)",
    "apparent KD of MS2 coat protein (nM)": 17
  },
  {
    "SEQUENCE RECORD": "AAUGAUUGACGAGGAUAUUGUGUUAGAUCACGACGAGAAGGCGUCUGUCACAUGAGGAUCACCCAUGUGAGCCUGGUGGAUGGG [Ex NG1 #79] (Eterna round: R96, puzzle: Exclusion NG 1)",
    "apparent KD of MS2 coat protein (nM)": 22.3
  },
  {
    "SEQUENCE RECORD": "AGUCAGGCGGUAGGAUAUCCAAACCGAGUGACCCUUACAUAACAUGAGGAUCACCCAUGUCGGUGGGAGAAGGGCCGUAAGGCA [Mat - Exclusion NG 2 - Mod of JL - D67] (Eterna round: R96, puzzle: Exclusion NG 2)",
    "apparent KD of MS2 coat protein (nM)": 349
  }
]

Requested field: apparent KD of MS2 coat protein. Item: UGAUCUAGGCGAGGAUAUACAUGAGGAUCACCCAUGUAAUGGUGACAUGCGUACAUGUCACCUAUGUAGAAGGCGCCUAGAUCU [JL ENG2 3.55] (Eterna round: R96, puzzle: Exclusion NG 2)
9

Also check UUUUUAUAUGAAGGAUAUACUUAACAUGAGGAUCACCCAUGUGGUGUUGUGAGUGAGUGAGUUUAGUAGAAGGUCAACGAUUUU [JMF's solution 58] (Eterna round: R96, puzzle: Exclusion NG 2)
322

UAGUUAUUCACAGGAUAUCGCCUCUUAUUACAUGAGGAUCACCCAUGUUUAUUUUGUUACAUGUUCGAGAAGGGUGUAGUCUUU [JR_ExcNG2_Sub046] (Eterna round: R96, puzzle: Exclusion NG 2) , same question.
436

// query: UGAUCUAGCGGAGGAUAUACAUGAGGAUCACCCAUGUAGAUAACAUGACCGUAGUCGUGUAUUGUGUAGAAGGCCGCUAGAUCU [JL ENG2 3.66] (Eterna round: R96, puzzle: Exclusion NG 2)
14.3

And what about the sequence AGCUGUGGCCGAGGAUAUCUAAAUUCUUAAAACGAAAUAUAAUCGAACAUGAGGAUCACCCAUGUAGAGAAGGCGGUCUCAGCA [Eli eng2 - 059] (Eterna round: R96, puzzle: Exclusion NG 2) ?
13.4

Thanks! And CUAGCGAUUGUAGGAUAUCGGACUGUUUCAGUCUGAGAAGGACAUGAGGAUCACCCAUGUGAAGCAACGUGAGUUGCACGCUAG [JL ENG1 3.83] (Eterna round: R96, puzzle: Exclusion NG 1) ?
13.8
